target: Prostaglandin D2 receptor 2 (Homo sapiens, UniProt Q9Y5Y4); experiment: biochemical
Sequence (Q9Y5Y4 whole entry): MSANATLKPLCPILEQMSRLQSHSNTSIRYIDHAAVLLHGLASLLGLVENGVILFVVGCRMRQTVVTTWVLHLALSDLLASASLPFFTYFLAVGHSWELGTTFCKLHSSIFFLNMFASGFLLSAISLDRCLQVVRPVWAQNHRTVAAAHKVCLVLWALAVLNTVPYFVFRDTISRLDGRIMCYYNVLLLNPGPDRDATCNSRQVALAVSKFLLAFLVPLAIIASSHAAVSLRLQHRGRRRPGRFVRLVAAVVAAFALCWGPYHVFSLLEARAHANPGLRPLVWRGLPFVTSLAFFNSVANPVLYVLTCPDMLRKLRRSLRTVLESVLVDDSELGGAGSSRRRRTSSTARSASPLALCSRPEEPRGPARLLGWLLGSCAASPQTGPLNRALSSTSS
Description: Displacement of [3H]PGD2 from human CRTh2 expressed in HEK cell membranes after 60 mins by scintillation counting method
pKi: −log10 of the molar value.
PROPERTY NAME: pKi

Consider the worked cases shown below.
COMPOUND SMILES	PROPERTY NAME	RESULT VALUE
O=C(O)COC(=O)N(C1CC1)[C@H]1c2ccccc2N(C(=O)c2ccc(F)cc2)[C@H]2CC[C@H]21	pKi	8.46
O=C(O)CCC(=O)N(C1CC1)[C@H]1c2cc(F)ccc2N(C(=O)c2ccc(OC(F)(F)F)cc2)[C@H]2CCC[C@H]21	pKi	8.30

P: O=C(O)COC(=O)N(C1CC1)[C@H]1c2ccccc2N(C(=O)c2cccc(F)c2)[C@H]2CC[C@H]21
Q: CCc1ccc2c(c1)[C@H](N(C(=O)CCC(=O)O)C1CC1)[C@@H]1CCC[C@@H]1N2C(=O)c1ccc(OC(F)(F)F)cc1
INPUT: Which is greater in pKi, the first item P or the second item Q ? Please respond with the label that marks your chosen entry.
OUTPUT: P
